The reported numbers originate from ChEMBL document CHEMBL1146011.

- procedure_details: Half life in orally dosed rat
- Type: ADME, organism-based
- condition: in vivo, po
experimental_endpoint: half-life (h)

I: COc1ccc(N2CC=C(c3ccc(Cl)c(Cl)c3)C2=O)cc1OCCN1CCCCC1
II: COc1ccc(N2CC=C(c3ccc(Cl)c(Cl)c3)C2=O)cc1OCCN1CCC(C)CC1
I'm curious, which of these has a smaller half-life number: I or II ? Lab log: write the label of the selected item as the result.
I

---

- procedure_details: Plasma clearance in orally dosed rat
- Type: ADME, organism-based
- condition: po
experimental_endpoint: CL/F (mL/min/kg)

Briefly, CL/F measured for COc1ccc(N2CCC(C)(c3ccc(Cl)c(Cl)c3)C2=O)cc1OCCN1CCC(C)CC1 (centres undefined) : 20

1: COc1ccc(N2CC=C(c3ccc(Cl)c(Cl)c3)C2=O)cc1OCCN1CCC(C)CC1
2: COc1ccc(N2CC=C(c3ccc(Cl)c(Cl)c3)C2=O)cc1OCCN1CCCCC1
Sorting ascending by CL/F, which comes first: 1 or 2 ? Answer by stating the label of the chosen item.
1
(1: 11 mL/min/kg, 2: 59 mL/min/kg)

---

pKi: −log10 of the molar value.
Notes on pKi obtained with 5-hydroxytryptamine receptor 2A (Homo sapiens, UniProt P28223).
Sequence (P28223 whole entry): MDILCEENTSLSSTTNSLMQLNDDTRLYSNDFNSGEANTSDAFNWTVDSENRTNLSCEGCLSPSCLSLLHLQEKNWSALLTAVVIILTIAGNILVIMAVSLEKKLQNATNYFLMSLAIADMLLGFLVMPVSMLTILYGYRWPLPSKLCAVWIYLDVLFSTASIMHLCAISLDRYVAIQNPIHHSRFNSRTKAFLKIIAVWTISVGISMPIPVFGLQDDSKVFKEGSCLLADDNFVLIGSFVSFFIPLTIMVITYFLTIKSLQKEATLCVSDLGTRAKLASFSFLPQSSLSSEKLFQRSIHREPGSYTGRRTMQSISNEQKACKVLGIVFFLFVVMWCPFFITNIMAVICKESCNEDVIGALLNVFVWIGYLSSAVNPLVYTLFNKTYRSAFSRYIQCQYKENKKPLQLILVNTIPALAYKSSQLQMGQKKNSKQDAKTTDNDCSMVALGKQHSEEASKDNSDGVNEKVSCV
experimental_endpoint: pKi

Below: 8 molecules and their reported pKi.
Entry under test: COc1ccc(C2=CCN(c3cccc(F)c3)C2=O)cc1OCCN1CCCCC1 . Its pKi was 6.00

Measured pKi, COc1ccc(N2CCC(c3ccc(Cl)c(Cl)c3)C2=O)cc1OCCN1CCCCC1 (configuration not stated) : 6.30

The recorded pKi for entry COc1ccc(N2CC=C(c3cccc(Cl)c3)C2=O)cc1OCCN1CCC(C)CC1 equals 6.10

// pKi lookup, molecule = COc1ccc(N2CC=C(c3ccc(F)cc3)C2=O)cc1OCCN1CCC(C)CC1 , result: 6.60

Please fill in: pKi reported for COc1ccc(N2CC=C(c3cccc(F)c3)C2=O)cc1OCCN1CCCCC1 = 6.20

The molecule listed as COc1ccc(C2(C)CCN(c3ccc(Cl)c(Cl)c3)C2=O)cc1OCCN1CCCCC1 (configuration not stated) has a reported pKi of 6.30

The measured pKi associated with COc1ccc(N2CC=C(c3ccc(Br)cc3)C2=O)cc1OCCN1CCC(C)CC1 reads 6.40

pKi reading for COc1ccc(N2CC=C(c3ccc(Cl)cc3)C2=O)cc1OCCN1CCC(C)CC1 : 6.20

1: COc1ccc(N2CC=C(c3cccc(C(F)(F)F)c3)C2=O)cc1OCCN1CCCCC1
2: COc1ccc(N2CC=C(c3ccc(C(F)(F)F)cc3)C2=O)cc1OCCN1CCC(C)CC1
Of 1 and 2 , which carries the smaller reported pKi figure? Answer by stating the label of the chosen item.
2
(2: 5.80, 1: 6.10)

---

- experimental_target: 5-hydroxytryptamine receptor 1D (Homo sapiens)
- Sequence (P28221 whole entry): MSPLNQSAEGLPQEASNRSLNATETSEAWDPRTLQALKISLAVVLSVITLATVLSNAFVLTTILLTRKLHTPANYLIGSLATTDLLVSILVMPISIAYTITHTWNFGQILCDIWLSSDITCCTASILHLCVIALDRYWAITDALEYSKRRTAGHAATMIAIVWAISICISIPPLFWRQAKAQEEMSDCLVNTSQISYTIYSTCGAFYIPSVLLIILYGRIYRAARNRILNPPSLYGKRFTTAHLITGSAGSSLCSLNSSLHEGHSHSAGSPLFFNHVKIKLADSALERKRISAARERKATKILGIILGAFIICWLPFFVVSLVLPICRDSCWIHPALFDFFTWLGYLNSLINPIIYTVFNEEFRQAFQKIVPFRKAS
experimental_endpoint: Ki

// COc1ccc(N2CC=C(c3ccc(Cl)c(Cl)c3)C2=O)cc1OCCN1CCCCC1 : Ki value = > 3.16 µM

---

- experimental_target: 5-hydroxytryptamine receptor 2C (Homo sapiens, UniProt P28335)
- Sequence (P28335 whole entry): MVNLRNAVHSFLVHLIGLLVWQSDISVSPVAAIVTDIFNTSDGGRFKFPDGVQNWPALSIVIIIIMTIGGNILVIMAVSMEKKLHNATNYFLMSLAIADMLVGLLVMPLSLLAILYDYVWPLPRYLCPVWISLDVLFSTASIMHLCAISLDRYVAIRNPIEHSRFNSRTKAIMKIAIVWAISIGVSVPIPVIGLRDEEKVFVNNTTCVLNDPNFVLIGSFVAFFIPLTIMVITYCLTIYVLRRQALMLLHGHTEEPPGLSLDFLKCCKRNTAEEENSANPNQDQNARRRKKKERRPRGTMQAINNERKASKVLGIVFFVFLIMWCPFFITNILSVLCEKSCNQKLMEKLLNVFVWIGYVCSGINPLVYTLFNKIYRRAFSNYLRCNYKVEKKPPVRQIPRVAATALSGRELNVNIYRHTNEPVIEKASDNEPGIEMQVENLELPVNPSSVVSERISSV
experimental_endpoint: Ki (nM)

The recorded Ki for entry COc1ccc(N2CC=C(c3ccc(Br)cc3)C2=O)cc1OCCN1CCCCC1 equals 1.26

P: COc1ccc(N2CC=C(c3ccc(F)cc3)C2=O)cc1OCCN1CCC(C)CC1
Q: Cc1ccc(N2CC=C(c3ccc(Cl)c(Cl)c3)C2=O)cc1OCCN1CCCCC1
Higher Ki: P or Q ? Pick one and reply with its label.
Q
(Q: 126 nM, P: 3.16 nM)

---

- experimental_target: D(3) dopamine receptor (Homo sapiens)
- Sequence (P35462 whole entry): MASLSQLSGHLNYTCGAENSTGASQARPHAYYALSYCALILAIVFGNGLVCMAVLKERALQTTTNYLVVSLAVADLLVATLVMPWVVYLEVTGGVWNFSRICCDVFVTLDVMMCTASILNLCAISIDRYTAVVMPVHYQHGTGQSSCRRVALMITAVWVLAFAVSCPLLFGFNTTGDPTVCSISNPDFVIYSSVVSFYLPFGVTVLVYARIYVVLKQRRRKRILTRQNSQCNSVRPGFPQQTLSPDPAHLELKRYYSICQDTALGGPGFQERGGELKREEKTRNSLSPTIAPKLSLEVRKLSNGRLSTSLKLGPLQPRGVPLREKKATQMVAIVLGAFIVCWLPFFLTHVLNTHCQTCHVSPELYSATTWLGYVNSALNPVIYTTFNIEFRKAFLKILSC
experimental_endpoint: pKi
Kindly note that pKi refers to -log10 of the concentration in mol/L and answer with the value alone.

Item: COc1ccc(N2CC=C(c3ccc(Cl)c(Cl)c3)C2=O)cc1OCCN1CCCCC1 | System: D(3) dopamine receptor (Homo sapiens) | pKi: 6.34

---

pKi: −log10 of the molar value.
Quick note: these are pKi numbers for system: 5-hydroxytryptamine receptor 2B (Homo sapiens)
Sequence (P41595 whole entry): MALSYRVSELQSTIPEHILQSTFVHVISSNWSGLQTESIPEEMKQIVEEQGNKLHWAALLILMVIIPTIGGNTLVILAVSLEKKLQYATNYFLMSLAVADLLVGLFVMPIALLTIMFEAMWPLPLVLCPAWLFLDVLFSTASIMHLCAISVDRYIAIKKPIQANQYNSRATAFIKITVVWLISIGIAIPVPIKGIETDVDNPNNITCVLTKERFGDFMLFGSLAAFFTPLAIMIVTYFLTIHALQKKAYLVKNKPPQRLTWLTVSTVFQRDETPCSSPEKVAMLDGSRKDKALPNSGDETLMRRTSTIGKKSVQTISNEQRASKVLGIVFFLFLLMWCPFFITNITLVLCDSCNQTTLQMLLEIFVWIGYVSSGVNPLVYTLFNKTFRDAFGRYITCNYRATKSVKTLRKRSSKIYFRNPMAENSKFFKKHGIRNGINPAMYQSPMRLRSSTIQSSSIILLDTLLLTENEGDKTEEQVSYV
experimental_endpoint: pKi

Take a look at these entries with their results.
Looking up COc1ccc(C2=C(C)CN(c3ccc(Cl)c(Cl)c3)C2=O)cc1OCCN1CCCCC1 , I found its pKi recorded as 6.70

The reported value for COc1ccc(C2=CCN(c3ccc(Cl)c(Cl)c3)C2=O)cc1OCCN1CCCCC1 in terms of pKi is 6.90

P: COc1ccc(C2CCN(c3ccc(Cl)c(Cl)c3)C2=O)cc1OCCN1CCCCC1 (stereo not given)
Q: O=C1C(c2ccc(Cl)c(Cl)c2)CCN1c1ccc(OC(F)(F)F)c(OCCN2CCCCC2)c1 (stereo not given)
Form field 'greater pKi' accepts P or Q ; which applies? When you have decided, please share the label of that item.
P

---

- procedure_details: Bioavailability in orally dosed rat
- Format: ADME, organism-based
- condition: in vivo, po
experimental_endpoint: bioavailability (%)

Known bioavailability results, listed for orientation:
Reported bioavailability ( COc1ccc(N2CCC(C)(c3ccc(Cl)c(Cl)c3)C2=O)cc1OCCN1CCCCC1 (centres undefined) ) = 13

The compound listed as COc1ccc(N2CCC(C)(c3ccc(Cl)c(Cl)c3)C2=O)cc1OCCN1CCC(C)CC1 (centres undefined) has a reported bioavailability of 50

a: COc1ccc(N2CC=C(c3ccc(Cl)c(Cl)c3)C2=O)cc1OCCN1CCCCC1
b: COc1ccc(N2CC=C(c3ccc(Cl)c(Cl)c3)C2=O)cc1OCCN1CCC(C)CC1
Endpoint returns the identifier whose bioavailability is numerically larger, either a or b . Kindly give the label for the entry you pick.
b
(b: 52%, a: 11%)

---

- procedure_details: Ratio of drug level in brain against plasma in orally dosed rat
- Assay type: ADME, organism-based
- condition: po, read-out: BPR
experimental_endpoint: Kp

The cases that follow already have their Kp on record.
Consider COc1ccc(N2CC=C(c3ccc(Cl)c(Cl)c3)C2=O)cc1OCCN1CCCCC1 . Its measured Kp is 3.9

The compound listed as COc1ccc(N2CCC(C)(c3ccc(Cl)c(Cl)c3)C2=O)cc1OCCN1CCCCC1 (centres undefined) shows Kp equal to 5

1: COc1ccc(N2CC=C(c3ccc(Cl)c(Cl)c3)C2=O)cc1OCCN1CCC(C)CC1
2: COc1ccc(N2CCC(C)(c3ccc(Cl)c(Cl)c3)C2=O)cc1OCCN1CCC(C)CC1 (centres undefined)
Would you let me know which has the greater Kp value, 1 or 2 ? Let me know the label of the one you choose.
1
(1: 7.2, 2: 1.8)

---

Parameter pKi, tested on 5-hydroxytryptamine receptor 2B (Homo sapiens), listed per item.
pKi: −log10 of the molar value.

# lookup: COc1ccc(N2CC=C(c3ccc(Cl)c(Cl)c3)C2=O)cc1OCCN1CCC(C)(C)CC1 on 5-hydroxytryptamine receptor 2B (Homo sapiens), pKi = 6.50

Fill in: 5-hydroxytryptamine receptor 2B (Homo sapiens) pKi for O=C1C(c2ccc(Cl)c(Cl)c2)=CCN1c1ccc(OC(F)(F)F)c(OCCN2CCCCC2)c1 = < 5.50

5-hydroxytryptamine receptor 2B (Homo sapiens) assay, compound COc1ccc(N2CC=C(c3ccc(C(F)(F)F)cc3)C2=O)cc1OCCN1CCCCC1 , recorded pKi = < 6.00

The compound O=C1C(c2ccc(Cl)c(Cl)c2)CCN1c1ccc(Cl)c(OCCN2CCCCC2)c1 (stereo unspecified) , tested on 5-hydroxytryptamine receptor 2B (Homo sapiens), showed pKi of < 5.80

The compound COc1ccc(N2CCC(c3cccc(Cl)c3)C2=O)cc1OCCN1CCCCC1 (stereo unspecified) , tested on 5-hydroxytryptamine receptor 2B (Homo sapiens), showed pKi of < 6.00

Here is another compound to look at.
Reported pKi (5-hydroxytryptamine receptor 2B (Homo sapiens)) for entry COc1ccc(N2CC=C(c3ccc(OC)c(OCCN4CCCCC4)c3)C2=O)cc1F is < 5.80

---

// 5-hydroxytryptamine receptor 2A (Homo sapiens, UniProt P28223) Ki records

Illustrative cases are given below, each with its answer.
Lab note: molecule COc1ccc(N2CC=C(c3ccc(Cl)c(F)c3)C2=O)cc1OCCN1CCC(C)CC1 tested on 5-hydroxytryptamine receptor 2A (Homo sapiens, UniProt P28223); recorded Ki was > 1260 nM

Query COc1ccc(N2CC=C(c3ccc(OC)c(OCCN4CCCCC4)c3)C2=O)cc1 on 5-hydroxytryptamine receptor 2A (Homo sapiens, UniProt P28223); Ki returned: > 5010 nM

Observed Ki on 5-hydroxytryptamine receptor 2A (Homo sapiens, UniProt P28223), entry COc1ccc(N2CCC(c3cccc(F)c3)C2=O)cc1OCCN1CCCCC1 (configuration not stated) , equals > 7940 nM

Sample COc1ccc(N2CCC(c3ccc(OC)c(OCCN4CCCCC4)c3)C2=O)cc1F (configuration not stated) , system: 5-hydroxytryptamine receptor 2A (Homo sapiens, UniProt P28223). Its Ki is > 1000 nM

Response field Ki (5-hydroxytryptamine receptor 2A (Homo sapiens, UniProt P28223)) for item COc1ccc(N2CC=C(c3ccc(C(F)(F)F)cc3)C2=O)cc1OCCN1CCCCC1 : > 1260 nM

Next:
Measured Ki (5-hydroxytryptamine receptor 2A (Homo sapiens, UniProt P28223)), entry O=C1C(c2ccc(Cl)c(Cl)c2)=CCN1c1ccc(Cl)c(OCCN2CCCCC2)c1 : > 1260 nM

Hey, 5-hydroxytryptamine receptor 2A (Homo sapiens, UniProt P28223) data for COc1ccc(N2CCC(c3ccc(OC)c(OCCN4CCCCC4)c3)C2=O)cc1Cl (configuration not stated) : Ki came out at > 2000 nM

Record COc1ccc(N2CC=C(c3ccc(Cl)c(Cl)c3)C2=O)cc1OCCN1CCC(F)(F)CC1 has 5-hydroxytryptamine receptor 2A (Homo sapiens, UniProt P28223) Ki equal to > 5010 nM

Let me check: COc1ccc(N2CC=C(c3ccc(C)cc3)C2=O)cc1OCCN1CCCCC1 , system 5-hydroxytryptamine receptor 2A (Homo sapiens, UniProt P28223), measured Ki is > 1000 nM

Entry O=C1C(c2ccc(Cl)c(Cl)c2)=CCN1c1ccc(OC(F)(F)F)c(OCCN2CCCCC2)c1 , tested on 5-hydroxytryptamine receptor 2A (Homo sapiens, UniProt P28223), has a reported Ki of > 10000 nM

Form field, Ki with 5-hydroxytryptamine receptor 2A (Homo sapiens, UniProt P28223), item O=C1C(c2ccc(Cl)c(Cl)c2)CCN1c1ccc(Cl)c(OCCN2CCCCC2)c1 (configuration not stated) : > 1000 nM

Given the molecule Cc1ccc(N2CC=C(c3ccc(Cl)c(Cl)c3)C2=O)cc1OCCN1CCCCC1 and test system 5-hydroxytryptamine receptor 2A (Homo sapiens, UniProt P28223), the measured Ki is > 1260 nM
